Entry source: patent US20260308145A1

Molecular target: CDK1/cyclinB1 (Homo sapiens, UniProt P06493)
Sequence (P06493 whole entry): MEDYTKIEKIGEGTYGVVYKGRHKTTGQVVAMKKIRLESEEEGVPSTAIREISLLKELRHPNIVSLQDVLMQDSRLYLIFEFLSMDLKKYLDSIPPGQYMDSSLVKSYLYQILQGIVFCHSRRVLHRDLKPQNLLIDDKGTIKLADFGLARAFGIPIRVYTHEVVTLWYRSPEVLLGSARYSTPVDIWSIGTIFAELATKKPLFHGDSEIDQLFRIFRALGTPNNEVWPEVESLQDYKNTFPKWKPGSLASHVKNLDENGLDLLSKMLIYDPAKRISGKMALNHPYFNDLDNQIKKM
Sequence (P14635 whole entry partner): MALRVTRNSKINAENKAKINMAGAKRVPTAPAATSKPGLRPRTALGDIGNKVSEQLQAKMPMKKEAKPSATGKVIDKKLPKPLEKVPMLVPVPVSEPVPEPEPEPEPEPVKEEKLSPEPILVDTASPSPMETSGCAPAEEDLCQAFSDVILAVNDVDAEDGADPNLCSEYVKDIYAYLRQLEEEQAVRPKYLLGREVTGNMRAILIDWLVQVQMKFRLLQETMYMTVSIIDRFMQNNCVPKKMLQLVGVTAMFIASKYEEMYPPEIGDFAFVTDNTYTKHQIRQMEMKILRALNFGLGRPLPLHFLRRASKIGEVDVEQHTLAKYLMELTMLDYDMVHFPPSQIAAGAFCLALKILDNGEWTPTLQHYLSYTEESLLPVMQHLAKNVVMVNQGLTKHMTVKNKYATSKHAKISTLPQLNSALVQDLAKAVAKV
Test: Cyclin-dependent kinase activity assay (continuous ATP coupling assay), CDK1/cyclinB1
Conditions: CDK1/cyclinB1 10 nM, ATP 200 μM, Histone1 copeptide 100 μM, 15 min preincubation, pH 7.5, 1% DMSO
outcome.measure: IC50

- compound: "CNS(=O)(=O)c1ccc(Nc2ncc(C(F)(F)F)c(-n3cc(C4CCN(S(C)(=O)=O)CC4)cn3)n2)cc1"
  assay.system: "CDK1/cyclinB1 (Homo sapiens, UniProt P06493)"
  IC50: "10 to 100 nM"
- compound: "CNS(=O)(=O)c1ccc(Nc2ncc(C(F)(F)F)c(-n3cc(C4CN(S(C)(=O)=O)C4)cn3)n2)cc1"
  assay.system: "CDK1/cyclinB1 (Homo sapiens, UniProt P06493)"
  IC50: "≥ 100 nM"
- compound: "CC(O)Cc1cnn(-c2nc(NC3CCN(S(C)(=O)=O)CC3)ncc2C(F)(F)F)c1 (single isomer, unassigned) [Example 108]"
  assay.system: "CDK1/cyclinB1 (Homo sapiens, UniProt P06493)"
  IC50: "≥ 100 nM"
- compound: "CNS(=O)(=O)c1ccc(Nc2ncc(C(F)(F)F)c(-n3cc(C4CCNCC4)cn3)n2)cc1"
  assay.system: "CDK1/cyclinB1 (Homo sapiens, UniProt P06493)"
  IC50: "10 to 100 nM"
- compound: "CNS(=O)(=O)c1ccc(Nc2ncc(C(F)(F)F)c(-n3cc(C4CCC4)cn3)n2)cc1"
  assay.system: "CDK1/cyclinB1 (Homo sapiens, UniProt P06493)"
  IC50: "≥ 100 nM"

Request: Please state recorded IC50 (tested on CDK1/cyclinB1 (Homo sapiens, UniProt P06493)) of "O=S(=O)(NCCO)c1ccc(Nc2ncc(C(F)(F)F)c(-n3cccn3)n2)cn1"
Response: ≥ 100 nM

Request: Please state recorded IC50 (tested on CDK1/cyclinB1 (Homo sapiens, UniProt P06493)) of "CNS(=O)(=O)c1ccc(Nc2ncc(F)c(-n3cccn3)n2)cc1"
Response: ≥ 100 nM

Request: Please state recorded IC50 (tested on CDK1/cyclinB1 (Homo sapiens, UniProt P06493)) of "O=S(=O)(NCCO)c1ccc(Nc2ncc(C(F)F)c(-n3cccn3)n2)cc1"
Response: ≥ 100 nM

Request: Please state recorded IC50 (tested on CDK1/cyclinB1 (Homo sapiens, UniProt P06493)) of "CNS(=O)(=O)c1ccc(Nc2ncc(Br)c(-n3cc(CC(C)(C)O)cn3)n2)cc1"
Response: 10 to 100 nM

Request: Please state recorded IC50 (tested on CDK1/cyclinB1 (Homo sapiens, UniProt P06493)) of CNS(=O)(=O)c1ccc(Nc2ncc(C(F)(F)F)c(-n3cc([C@@H]4CCC[C@@H]4O)cn3)n2)cc1 (single isomer, unassigned)
Response: ≥ 100 nM

Request: Please state recorded IC50 (tested on CDK1/cyclinB1 (Homo sapiens, UniProt P06493)) of "O=C(O)CNS(=O)(=O)c1ccc(Nc2ncc(C(F)(F)F)c(-n3cccn3)n2)cc1"
Response: ≥ 100 nM

Request: Please state recorded IC50 (tested on CDK1/cyclinB1 (Homo sapiens, UniProt P06493)) of "O=S(=O)(NCCO)c1ccc(Nc2ncc(C(F)(F)F)c(-n3cccn3)n2)cc1"
Response: 10 to 100 nM

Request: Please state recorded IC50 (tested on CDK1/cyclinB1 (Homo sapiens, UniProt P06493)) of "CNS(=O)(=O)c1ccc(Nc2ncc(C(F)(F)F)c(-n3cc(C4CNC4)cn3)n2)cc1"
Response: 10 to 100 nM

Request: Please state recorded IC50 (tested on CDK1/cyclinB1 (Homo sapiens, UniProt P06493)) of "CNS(=O)(=O)c1ccc(Nc2nccc(-n3cccn3)n2)cc1"
Response: ≥ 100 nM

Request: Please state recorded IC50 (tested on CDK1/cyclinB1 (Homo sapiens, UniProt P06493)) of "O=C1NCc2cc(Nc3ncc(C(F)(F)F)c(-n4cccn4)n3)ccc21"
Response: ≥ 100 nM

Request: Please state recorded IC50 (tested on CDK1/cyclinB1 (Homo sapiens, UniProt P06493)) of "[2H]C([2H])([2H])NS(=O)(=O)c1ccc(Nc2ncc(C(F)(F)F)c(-n3cc(CC(C)(C)O)cn3)n2)cc1"
Response: 10 to 100 nM

Request: Please state recorded IC50 (tested on CDK1/cyclinB1 (Homo sapiens, UniProt P06493)) of "CNS(=O)(=O)c1ccc(Nc2ncc(Cl)c(-n3cccn3)n2)cc1"
Response: ≥ 100 nM

Request: Please state recorded IC50 (tested on CDK1/cyclinB1 (Homo sapiens, UniProt P06493)) of "CNS(=O)(=O)c1ccc(Nc2ncc(C(F)(F)F)c(-n3cc(C4CCN(C(C)C)CC4)cn3)n2)cc1"
Response: 10 to 100 nM

Request: Please state recorded IC50 (tested on CDK1/cyclinB1 (Homo sapiens, UniProt P06493)) of CNS(=O)(=O)c1ccc(Nc2ncc(C(F)(F)F)c(-n3cc([C@H]4CCC[C@H]4O)cn3)n2)cc1 (single isomer, unassigned)
Response: 10 to 100 nM

Request: Please state recorded IC50 (tested on CDK1/cyclinB1 (Homo sapiens, UniProt P06493)) of "CNS(=O)(=O)c1ccc(Nc2ncc(C#N)c(-n3cccn3)n2)cc1"
Response: ≥ 100 nM

Request: Please state recorded IC50 (tested on CDK1/cyclinB1 (Homo sapiens, UniProt P06493)) of "CNS(=O)(=O)c1ccc(Nc2ncc(C(F)(F)F)c(-n3cccn3)n2)c(F)c1"
Response: ≥ 100 nM

Request: Please state recorded IC50 (tested on CDK1/cyclinB1 (Homo sapiens, UniProt P06493)) of "CNS(=O)(=O)c1ccc(Nc2ncc(C(F)(F)F)c(-n3cc(C4(C#N)CC4)cn3)n2)cc1"
Response: ≥ 100 nM

Request: Please state recorded IC50 (tested on CDK1/cyclinB1 (Homo sapiens, UniProt P06493)) of CNS(=O)(=O)c1ccc(Nc2ncc(C(F)(F)F)c(-n3cc(C4CC4(F)F)cn3)n2)cc1 (single isomer, unassigned) [Example 53]
Response: ≥ 100 nM
